Data origin: ChEMBL document CHEMBL1157010

Assay comment: Lipophilicity, log D at pH 7.4
Assay type: physicochemical
Condition set: buffer
Measured quantity: logD

Query :: Given the compound C[C@H]1CC(CN)(CC(=O)O)C[C@@H]1C (relative stereo) [ATAGABALIN] , what is its reported logD?
Result :: -1

###

Assay comment: Bioavailability in rat
Type: ADME, organism-based
Condition set: in vivo
Measured quantity: bioavailability (%)
Please give a number only; it is taken to be in %.

Query :: Name the recorded bioavailability for C[C@H]1CC(CN)(CC(=O)O)C[C@@H]1C (relative stereo) .
Result :: 87

###

We begin with a simple list: items and their reported IC50.
Assay comment: Displacement of [3H]gabapentin from Voltage-dependent calcium channel subunit alpha-2/delta in pig cerebral cortex by scintillation counting
Type: tissue-based, Sus scrofa
Unit nM implied. Number only.

Examples with answers:
>  <Compound>
C[C@@H]1CC(CN)(CC(=O)O)C[C@H]1C

>  <Units of measure>
nM

>  <IC50>
882

$$$$
>  <Compound>
CCC[C@H]1CC(CN)(CC(=O)O)C[C@@H]1C (mixture of isomers)

>  <Units of measure>
nM

>  <IC50>
21

$$$$
>  <Compound>
C[C@@H]1C[C@](CN)(CC(=O)O)C[C@@H]1C

>  <Units of measure>
nM

>  <IC50>
153

$$$$
>  <Compound>
C[C@H]1CC(CN)(CC(=O)O)C[C@@H]1C (relative stereo)

>  <Units of measure>
nM

>  <IC50>
22

$$$$

Query :: What value of IC50 has been reported for the following compound? C[C@@H]1C[C@@](CN)(CC(=O)O)C[C@@H]1C
Result :: 107

Query :: Would you mind doing C[C@@H]1CC[C@](CN)(CC(=O)O)C1 as well?
Result :: 30

Query :: How about CC[C@H]1CC(CN)(CC(=O)O)C[C@@H]1CC (racemic) ?
Result :: 1100

Query :: Lookup C[C@@H]1CC[C@@](CN)(CC(=O)O)C1
Result :: 71

Query :: Let us now turn to CC[C@@H]1C[C@](CN)(CC(=O)O)C[C@@H]1CC
Result :: 4200
